# experiment-description: Cmax in Swiss mouse at 50 mg/kg, po by LC-MS/MS analysis
# Type: ADME, organism-based
# Design: dose 50 mg/kg, route oral
# assay-context: in vivo
assay-endpoint: Cmax (µM)

>>> print(df.to_string())
                                   compound  assay_endpoint  measured_value
0  COc1ccc(C2C3=C(CCC3=O)Nc3c2c(-c2c[nH]c4ccccc24)nn3-c2ccc(Cl)c(Cl)c2)cc1OC (stereo unspecified)            Cmax            4.88

* * *

# System: Leishmania donovani
# experiment-description: Antileishmanial activity against Leishmania donovani MHOM/IN/80/DD8 promastigote forms harboring luciferase gene at 25 uM after 72 hrs by Steady-Glo reagent based luminescence assay relative to control
# Format: functional
# assay-context: MHOM/IN/80/DD8, 72 h, read-out: GI
Param threshold (60%) applies to inhibition of growth at 25 µM; output MET when value >= threshold, NOT MET when value < threshold.

                                   compound  answer_label
0  COc1ccc(-c2c3c(nc4c2c(-c2c[nH]c5ccccc25)nn4-c2ccc(Cl)cc2)-c2ccccc2C3=O)cc1       NOT MET
1  COc1cc(C2C3=C(CC(C)(C)CC3=O)Nc3c2c(-c2c[nH]c4ccccc24)nn3-c2ccc(Cl)cc2)cc(OC)c1OC (configuration not stated)           MET
2  COc1cc(C2C3=C(CCC3=O)Nc3c2c(-c2c[nH]c4ccccc24)nn3-c2ccc(F)cc2)cc(OC)c1O (configuration not stated)       NOT MET
3  CC1(C)CC(=O)C2=C(C1)Nc1c(c(-c3c[nH]c4ccccc34)nn1-c1ccc(F)cc1)C2c1ccc(Cl)cc1 (configuration not stated)       NOT MET
4  COc1cc(C2C3=C(CCC3=O)Nc3c2c(-c2c[nH]c4ccccc24)nn3-c2ccc(Cl)cc2)cc(OC)c1O (configuration not stated)           MET
5  COc1cc(C2C3=C(CCC3=O)Nc3c2c(-c2c[nH]c4ccccc24)nn3-c2ccc(Cl)cc2)cc(OC)c1OC (configuration not stated)           MET
6  COc1ccc(-c2c3c(nc4c2c(-c2c[nH]c5ccccc25)nn4-c2ccc(Cl)cc2)-c2ccccc2C3=O)c(OC)c1OC       NOT MET

* * *

# experiment-description: Selectivity index, ratio of CC50 for African green monkey Vero cells to IC50 for Leishmania donovani MHOM/IN/80/DD8 amastigote forms infected in mouse J774 cells
# Format: toxicity, cell-based
# assay-context: read-out: Ratio CC50/IC50
Here, each record is paired with measured selectivity ratio data.
assay-endpoint: selectivity ratio

In [3]: df
Out[3]:
                                   molecule  measured_value
0  COc1ccc(C2C3=C(CCC3=O)Nc3c2c(-c2c[nH]c4ccccc24)nn3-c2ccc(Cl)c(Cl)c2)cc1OC (stereo not drawn)             108
1  CCCCCCCCCCCCCCCCOP(=O)([O-])OCC[N+](C)(C)C             5.3
2  COc1ccc(OC)c(C2C3=C(CC(C)(C)CC3=O)Nc3c2c(-c2c[nH]c4ccccc24)nn3-c2ccc(Cl)c(Cl)c2)c1 (stereo not drawn)            67.6
